Tested on: H3N8 A/Miami/2/63
Details: A/Miami/2/63, 48 h, 10 μM
Bridge positions count the residues as written; N and C are the ends. Square brackets hold non-standard residues; d marks the D form. Peptide text beside a SMILES is read from it.
RESULT_TYPE: % inhibition H3N8 (%)
Give the value in % but do not write % after it.

Lookup: Specify % inhibition H3N8 for CC[C@@H](C)[C@H]1NC(=O)[C@@H](Cc2ccccc2)NC(=O)[C@@H](CCC(N)=O)NC(=O)[C@@H](Cc2ccccc2)NC(=O)[C@@H](Cc2c[nH]c3ccccc23)NC(=O)[C@@H]([C@H](C)O)NC(=O)[C@H](NC(=O)[C@H](CCCCN)NC(=O)[C@H](CCCCN)NC(=O)[C@H](CCCNC(=N)N)NC(=O)[C@@H](N)CCCNC(=N)N)CSSC[C@H](C(=O)O)NC(=O)[C@@H](CC(N)=O)NC1=O [PSP IV A14, H-RRKKctwfqfinc-OH] (H-RRKK[dC][dT][dW][dF][dQ][dF][dI][dN][dC]-OH; disulfide 5-13) , system H3N8 A/Miami/2/63.
Found: 83

Lookup: Specify % inhibition H3N8 for CC[C@@H](C)[C@H]1NC(=O)[C@@H](Cc2ccccc2)NC(=O)[C@@H](CCC(=O)O)NC(=O)[C@@H](Cc2ccccc2)NC(=O)[C@@H](Cc2c[nH]c3ccccc23)NC(=O)[C@@H]([C@H](C)O)NC(=O)[C@H](NC(=O)[C@H](CCCCN)NC(=O)[C@H](CCCCN)NC(=O)[C@H](CCCNC(=N)N)NC(=O)[C@@H](N)CCCNC(=N)N)CSSC[C@H](C(=O)O)NC(=O)[C@@H](CC(N)=O)NC1=O [PSP IV A4, H-RRKKctwfefinc-OH] (H-RRKK[dC][dT][dW][dF][dE][dF][dI][dN][dC]-OH; disulfide 5-13) , system H3N8 A/Miami/2/63.
Found: 72

Recorded values, source patent US10538554B2.
